tgt: UniProtKB P37288
test: Cellular in vitro assay for determining vasopressin receptor activity (V1a, aequorin luminescence)
test settings: CHO cell line transfected with human V1a receptor; [Arg8]-vasopressin at EC50 concentration; read-out: IC50 hV1a
recorded endpoint: log10 of IC50 (log10 of the value in nM)
Log10 applied to IC50; unit prior to transform: nM.

These solved cases illustrate the format of a correct answer.
input: // query log10 of IC50 value for entry C[C@H](O)c1nc(Cn2nc(-c3ccc(Cl)cc3)n(C[C@H](O)C(F)(F)F)c2=O)nn1-c1ccccn1 [Example 14]
output: 0.81

input: Ok, now C[C@@H](O)c1nc(Cn2nc(-c3ccc(Cl)cc3)n(C[C@H](O)C(F)(F)F)c2=O)nn1-c1c(Cl)cncc1Cl [Example 4]
output: 0.11

input: Can you check C[C@H](O)c1nc(Cn2nc(-c3ccc(Cl)cc3)n(C[C@H](O)C(F)(F)F)c2=O)nn1-c1ncccc1Cl [Example 3] next?
output: -0.24

input: Continue with COc1nccnc1-n1nc(Cn2nc(-c3ccc(Cl)cc3)n(C[C@H](O)C(F)(F)F)c2=O)nc1[C@H](C)O [Example 21]
output: 1.69

input: Check C[C@@H](O)c1nc(Cn2nc(-c3ccc(Cl)cc3)n(C[C@H](O)C(F)(F)F)c2=O)nn1-c1cnccc1Cl [Example 1] too.
output: -0.31

input: Another: CC(O)c1nc(Cn2nc(-c3ccc(Cl)cc3)n(C[C@H](O)C(F)(F)F)c2=O)nn1-c1cccnc1 (single isomer, unassigned) [Example 25]
output: 1.96

input: Moving on to the next compound: CC(O)c1nc(Cn2nc(-c3ccc(Cl)cc3)n(C[C@H](O)C(F)(F)F)c2=O)nn1-c1cccnc1 (mixture of isomers) [Example 24]
output: 1.69

input: Let us now turn to CC(O)c1nc(Cn2nc(-c3ccc(Cl)cc3)n(C[C@H](O)C(F)(F)F)c2=O)nn1-c1cncc(Cl)c1 (single isomer, unassigned) [Example 28]
output: 1.31

More entries:
input: What does the data say about its log10 of IC50? Entry: CC(O)c1nc(Cn2nc(-c3ccc(Cl)cc3)n(C[C@H](O)C(F)(F)F)c2=O)nn1-c1cncc(Cl)c1 (single isomer, unassigned) [Example 29]
output: 0.89

input: Consider next the compound C[C@H](O)c1nc(Cn2nc(-c3ccc(Cl)cc3)n(C[C@H](O)C(F)(F)F)c2=O)nn1-c1cccc(F)n1 [Example 17] in the same way.
output: 1.16

----------
Reported IC50 values are given for each entry in this list.
tgt: human V1a receptor (Homo sapiens, UniProt P37288)
Sequence (P37288 whole entry): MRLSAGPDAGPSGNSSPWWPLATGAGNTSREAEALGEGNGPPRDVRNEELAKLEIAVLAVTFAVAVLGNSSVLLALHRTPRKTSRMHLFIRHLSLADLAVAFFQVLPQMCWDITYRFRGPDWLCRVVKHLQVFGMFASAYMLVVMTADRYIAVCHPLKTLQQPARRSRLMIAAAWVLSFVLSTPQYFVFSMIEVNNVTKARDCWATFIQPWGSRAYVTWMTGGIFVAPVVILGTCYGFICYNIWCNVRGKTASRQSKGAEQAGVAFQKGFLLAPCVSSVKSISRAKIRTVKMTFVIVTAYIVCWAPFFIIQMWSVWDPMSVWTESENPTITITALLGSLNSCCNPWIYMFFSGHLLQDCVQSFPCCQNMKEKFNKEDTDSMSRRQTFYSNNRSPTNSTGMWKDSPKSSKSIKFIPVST
test: Cellular in vitro assay for determining vasopressin receptor activity (V1a, aequorin luminescence)
test settings: CHO cell line transfected with human V1a receptor; [Arg8]-vasopressin at EC50 concentration; read-out: IC50 hV1a
Reply numerically in nM, unit not repeated.

input: API: value(readout=IC50, system=human V1a receptor (Homo sapiens, UniProt P37288)) for record C[C@H](O)c1nc(Cn2nc(-c3ccc(Cl)cc3)n(C[C@H](O)C(F)(F)F)c2=O)nn1-c1ncccc1F [Example 11]
output: 5.6

input: Let us now turn to C[C@H](O)c1nc(Cn2nc(-c3ccc(Cl)cc3)n(C[C@H](O)C(F)(F)F)c2=O)nn1-c1cnccc1Cl [Example 2]
output: 0.53

input: Input C[C@H](O)c1nc(Cn2nc(-c3ccc(Cl)cc3)n(C[C@H](O)C(F)(F)F)c2=O)nn1-c1nccn1C [Example 22]
output: 68.1

Further cases:
input: Request body: readout IC50, system human V1a receptor (Homo sapiens, UniProt P37288), query C[C@@H](O)c1nc(Cn2nc(-c3ccc(Cl)cc3)n(C[C@H](O)C(F)(F)F)c2=O)nn1-c1ccccn1 [Example 23] . Return the value.
output: 86.5

input: Please answer likewise for CC(O)c1nc(Cn2nc(-c3ccc(Cl)cc3)n(C[C@H](O)C(F)(F)F)c2=O)nn1-c1cncc(Cl)c1 (mixture of isomers) [Example 27]
output: 12.3

input: Same question for COc1cccnc1-n1nc(Cn2nc(-c3ccc(Cl)cc3)n(C[C@H](O)C(F)(F)F)c2=O)nc1[C@H](C)O [Example 8] please.
output: 3.65
